Test: NCI Yeast Anticancer Drug Screen. Data for the wt2 strain (AID 169);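 also: 0% = growth of vehicle-treated yeast cultures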
Settings: S. cerevisiae wt2 strain growth inhibition; at 3.7 µM; active compounds read high
Compounds without any hit were thinned out: in the full panel of roughly 79,000, 15% have a hit. Activity calls are given as the source filed them. Rule as the data show it: active = growth inhibition above about 70%; inactive = the rest.
measurement.kind: growth inhibition

Record summary for COc1ccc(C2CC(C)(N3CCCC3)Oc3cc4c(cc32)OCO4)cc1 (configuration not stated) : reported growth inhibition = -1% (inactive)

Reported growth inhibition for C/C1=C/C2OC(=O)C3(C)C2C(CC2(C)OC1=CC2=O)OC3(O)C(C)C (configuration not stated) was 21% (inactive)

So, CCC(=O)C1=C(O)c2cc(OC)ccc2CC1C(=O)OC (configuration not stated) ? Its growth inhibition was 3% (inactive)

Reported growth inhibition for C=C(C(=O)OC)N1C(=O)CC(C)C1=O (configuration not stated) was -26% (inactive)

Item: Oc1ccc(N=Nc2ccc(Cl)cc2)cc1 | growth inhibition: 5% (inactive)

Sample O=[N+]([O-])c1cc[n+]([O-])c(Cl)c1 ; growth inhibition observed: -50% (inactive)

Fc1ccc(Nc2ccc3ccccc3c2)cc1 has a reported growth inhibition of 8% (inactive)

Recorded growth inhibition (compound CCCCCCC1OCC(O)C(OCCCC)O1 (configuration not stated) ): -5% (inactive)

compound O=C(O)C1CCCCC1c1c2ccc(=O)cc-2oc2cc(O)ccc12 (configuration not stated) , growth inhibition observed: -18% (inactive)

For CC1=COC2=C(C)C(=O)C(=O)c3c(C)ccc1c32 the compound record lists growth inhibition as -18% (inactive)

growth inhibition in this record for CC(C)C(=O)CC(Sc1ccc(N)cc1)c1ccccc1 (configuration not stated) : -2% (inactive)

The compound listed as S=C1N(c2ccc(Cl)cc2)C2=C(N=Nc3ccccc3)C(=Nc3ccccc3S2)N1c1ccccn1 has a reported growth inhibition of -1% (inactive)

The compound listed as C/C(=N\OCC(O)CNCCSCc1ccccc1)c1ccccc1Cl (configuration not stated) shows growth inhibition equal to 8% (inactive)

Note to self: growth inhibition recorded for O=[N+]([O-])c1ccc2[nH]c3c(-c4ccccc4)nccc3c2c1 was 43% (inactive)

The compound COc1c2c(c3c(c1CCC(=O)O)OC(C)(C)C=C3)OC(C)(C)C=C2 showed growth inhibition equal to 2% (inactive)

For reference, reported growth inhibition for Cc1c(Cl)c(C)c(Cl)c(O)c1Cl stands at -20% (inactive)

The reported growth inhibition of the compound CC(C)(Br)C(=O)/C=C/c1ccccc1 was 3% (inactive)

----------
Assay: NCI Yeast Anticancer Drug Screen. Data for the rad18 strain (AID 177)
Settings: S. cerevisiae rad18 mutant growth inhibition; at 3.7 µM
Compounds without any hit were thinned out: in the full panel of roughly 79,000, 15% have a hit. Activity calls are given as the source filed them. No stated cut-off is given here; in the data, active means growth inhibition above about 70%; inactive means the rest.
Your answer must be one of the following: active, inactive

Which outcome did this test record for the compound CN(CCOc1ccc(Cl)cc1)CCOc1ccc(Cl)cc1 ? inactive

What is the recorded call for this compound in the test? Cn1c(-c2ccc(/C=N\N3CCN(/N=C/c4ccc(-c5c[n+]6ccsc6n5C)cc4)CC3)cc2)c[n+]2ccsc12 inactive

How was OC1(c2ccccc2)C2CC=CC2C1(c1ccccc1)c1ccccc1 (stereo unspecified) classified in this test? inactive

Please share the test call associated with O=S1(=O)CCC2=CC(C(F)(F)F)=CC(C(F)(F)F)=CN21 . inactive

Fill in: this test's call for COc1ccc(C(C)c2cc3c(cc2OC(C)O)OCO3)cc1 (stereo unspecified) is ___ inactive

Record lookup: outcome of this test for CC(C)OP(=O)(OC(C)C)C(=NCCO)NNc1ccc([N+](=O)[O-])cc1 ? inactive

For COC(=O)/C(C#N)=C\NC(=S)C(N)=S , what call appears in the results of this test? inactive

So what was the verdict on CC(C)(CN1CCCCC1)C(=O)CC(SCCS(=O)(=O)O)c1ccccc1 (stereo unspecified) in this test? inactive

What is the recorded call for this compound in the test? O=[N+]([O-])/C=C/c1cc2ccc3ccccc3c2[nH]1 active

Per the records of this test, what outcome belongs to C[n+]1c(/C=C/c2ccc(/C=N/NC(=O)c3ccc(C(=O)N/N=C/c4ccc(/C=C/c5cn6ccccc6[n+]5C)cc4)cc3)cc2)cn2ccccc21 ? active

Dear all, I need the recorded test outcome for COc1ccc(N=c2cc(-c3ccccc3)oc3ccccc23)cc1 , thank you. inactive

I would be grateful if you could indicate the recorded call for CC1=CC(C)(C)SC(SSSC2=NC(C)=CC(C)(C)S2)=N1 . inactive

GET /call?item= CC1=NN(C(=O)CC(=O)NC(=O)/C=C\c2ccccc2)C(=O)C1N=Nc1ccc([N+](=O)[O-])cc1 (stereo unspecified) returns the recorded outcome of this test. inactive

Hi, do you know how OB(O)c1ccccc1C#Cc1ccccc1 came out in this test? inactive

Dear colleague, could you share the recorded outcome for O=C(/N=N/C(=O)Oc1ccccc1)Oc1ccccc1 when you have a moment? inactive

Hey, what did the test say about CCCCS/C(=C(/C#N)C(N)=O)c1cc2c([nH]1)CCCC2 ? inactive
